Reference for the values: ChEMBL document CHEMBL1201862

assay_protocol: Shn3 3'UTR reporter inhibitors, dose response, cell-based, Clone20 osteoblasts, firefly luciferase, cherry-picked (AID 624132);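 further: firefly luciferase luminescence from reporter carrying the Shn3 3'UTR in osteoblasts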
Assay type: functional
The source made the active and inactive calls.
measured_metric: AC50

Guide cases for AC50, answers given:
| given_smiles | experimental_result |
| --- | --- |
| CCCCNS(=O)(=O)c1ccc(S(=O)(=O)NCc2ccncc2)cc1 | 2.4 µM (active) |
| CCn1c(=O)c(C(=O)Nc2nc3ccccc3[nH]2)c(O)c2ccccc21 | 6.01 µM (active) |
| CC(=O)N1CCN(c2ccc(NC(=O)c3ccc([N+](=O)[O-])o3)cc2Cl)CC1 | 1.08 µM (active) |

Here is another molecule to look at.
# return recorded AC50 for entry O=C(Nc1ccc(Cc2ccncc2)cc1)c1ccc([N+](=O)[O-])o1
2.71 µM (active)

----------
This section lists AC50 readings for Cytochrome P450 3A4 (Homo sapiens).

| compound | AC50 |
| --- | --- |
| CC(C)Oc1cccnc1N(C)C1CCN(Cc2ccccc2)CC1 | 15.8 µM (inconclusive) |
| Cc1cc(C)c(NC(=O)C2CCCN2C)c(C)c1 (stereo unspecified) | 25.1 µM (inconclusive) |
| COc1ccccc1CNCc1cccs1 | 17.8 µM (inconclusive) |

For Cytochrome P450 3A4 (Homo sapiens), give AC50 of the listed compound: COc1cccc(C2C3=C(CC(C)(C)CC3=O)OC(N)=C2[N+](=O)[O-])c1 (stereo unspecified)
15.8 µM (inconclusive)

Fetch value of AC50 on Cytochrome P450 3A4 (Homo sapiens) for COc1ccc2nc(NC(=O)CSc3nnc(C)s3)sc2c1 .
Sequence (P08684 whole entry): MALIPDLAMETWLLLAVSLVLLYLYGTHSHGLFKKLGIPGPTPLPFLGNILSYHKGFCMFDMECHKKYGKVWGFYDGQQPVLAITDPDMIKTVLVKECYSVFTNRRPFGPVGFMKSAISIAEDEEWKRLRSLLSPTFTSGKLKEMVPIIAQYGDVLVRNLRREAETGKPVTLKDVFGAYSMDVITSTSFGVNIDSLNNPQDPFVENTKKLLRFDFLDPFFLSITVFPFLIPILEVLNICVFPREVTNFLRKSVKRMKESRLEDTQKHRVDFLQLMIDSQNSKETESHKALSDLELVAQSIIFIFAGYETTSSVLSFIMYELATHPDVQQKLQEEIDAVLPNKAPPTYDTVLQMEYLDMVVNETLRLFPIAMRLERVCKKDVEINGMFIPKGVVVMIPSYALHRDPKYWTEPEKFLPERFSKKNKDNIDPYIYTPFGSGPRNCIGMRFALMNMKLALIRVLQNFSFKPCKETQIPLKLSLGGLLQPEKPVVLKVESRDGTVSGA
3.98 µM (inconclusive)

With Cytochrome P450 3A4 (Homo sapiens) as the test system, provide measured AC50 for this compound: O=C(Nc1cccc(C(F)(F)F)c1)N(Cc1ccc(Cl)cc1)CC(O)C(F)(F)F (stereo unspecified)
22.4 µM (inconclusive)

Quote Cytochrome P450 3A4 (Homo sapiens) AC50 for entry Cn1c(=O)c2[nH]c(SCCN3CCOCC3)nc2n(C)c1=S .
3.16 µM (inconclusive)

Write down the reported AC50 (system: Cytochrome P450 3A4 (Homo sapiens)) of COc1ccc(Oc2nc(C)cc(C)c2S(=O)(=O)c2ccc(C)cc2)cc1;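 further: CYP3A4 tested as one member of a cytochrome P450 panel screen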
1.12 µM (inconclusive)

----------
system: Polyadenylate-binding protein 1 (Homo sapiens)
Sequence (P11940 whole entry): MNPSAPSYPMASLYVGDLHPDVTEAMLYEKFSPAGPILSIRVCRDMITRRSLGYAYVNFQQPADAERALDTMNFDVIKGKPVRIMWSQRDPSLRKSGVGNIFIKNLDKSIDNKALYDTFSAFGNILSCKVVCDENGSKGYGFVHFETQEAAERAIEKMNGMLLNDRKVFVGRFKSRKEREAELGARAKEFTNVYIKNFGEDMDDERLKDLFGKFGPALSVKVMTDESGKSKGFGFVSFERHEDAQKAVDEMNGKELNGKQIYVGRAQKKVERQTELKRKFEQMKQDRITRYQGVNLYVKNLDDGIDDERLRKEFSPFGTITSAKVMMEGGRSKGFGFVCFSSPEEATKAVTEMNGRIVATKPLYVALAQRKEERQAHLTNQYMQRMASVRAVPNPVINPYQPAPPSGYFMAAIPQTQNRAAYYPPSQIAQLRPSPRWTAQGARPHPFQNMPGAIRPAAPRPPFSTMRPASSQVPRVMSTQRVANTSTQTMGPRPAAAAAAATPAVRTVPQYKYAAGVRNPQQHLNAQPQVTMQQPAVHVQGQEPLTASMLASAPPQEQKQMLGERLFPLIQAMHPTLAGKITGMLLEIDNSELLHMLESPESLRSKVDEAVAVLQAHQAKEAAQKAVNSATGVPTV
assay_protocol: PABP1 MLLE–PAM2 interaction inhibitors, dose response, miRNA deadenylation inhibitor project, biochemical, fluorescence polarization, Cy5-PAM2 peptide, secondary (AID 602260)
Type: functional
measurement_conditions: read-out: IC50_Mean
Activity calls are given as the source filed them.
measured_metric: IC50

Below are worked cases with known answers.
| given_smiles | measured_metric | experimental_result |
| --- | --- | --- |
| Clc1ccc(/C=N/c2c(-c3ccco3)nc3ccccn23)cc1 | IC50 | > 66 µM (inactive) |
| COc1nccnc1NS(=O)(=O)c1ccc(NC(=S)NC(=O)c2ccc(F)cc2)cc1 | IC50 | > 66 µM (inactive) |
| CNc1sc(C(=O)c2ccccc2F)c(N)c1-c1nc2ccccc2s1 | IC50 | > 66 µM (inactive) |

Supply recorded IC50 for COc1ccc(CNC(=O)CN(Cc2ccc(Cl)cc2)C(=O)c2csnn2)cc1 here.
> 66 µM (inactive)

Let me know recorded IC50 for NC(=S)N=Nc1c(O)[nH]c2cc(F)c(F)cc12 , thanks.
> 66 µM (inactive)

State its IC50: O=C(CSC1c2ccccc2-c2ccccc21)N/N=C/c1ccccc1O
> 66 µM (inactive)

Let me know recorded IC50 for CCSc1nc(=S)n(-c2ccccc2)c(C)c1C(C)=O , thanks.
> 66 µM (inactive)
